Readings of inhibition for the listed compounds
- target: Programmed cell death protein 1/Programmed cell death 1 ligand 1 (Homo sapiens) (UniProt Q15116+Q9NZQ7)
- procedure.text: Inhibition of GST-tagged PD-1 (unknown origin)/His-tagged PD-L1 (unknown origin) interaction at 100 nM by HTRF binding assay relative to control
- Format: protein-complex assay
property: inhibition

compound	value
Cc1c(COc2cc(OCc3cccc(C#N)c3)c(CNC(C)(C)C(=O)N3CCC(NC(=O)CCCC[C@H]4SC[C@H]5NC(=O)N[C@H]54)CC3)cc2Cl)cccc1-c1ccc2c(c1)OCCO2	42.6%
Cc1c(COc2cc(OCc3cccc(C#N)c3)c(CNC(C)(C)C(=O)NCCCNC(=O)CCCC[C@@H]3SC[C@@H]4NC(=O)N[C@@H]43)cc2Cl)cccc1-c1ccccc1	81.5%
Cc1c(COc2cc(OCc3cccc(C#N)c3)c(CN3CCCCC3C(=O)N3CCN(C(=O)CCCC[C@@H]4SC[C@@H]5NC(=O)N[C@@H]54)CC3)cc2Cl)cccc1-c1ccc2c(c1)OCCO2 (some centres undefined)	80.9%
Cc1c(COc2cc(OCc3cccc(C#N)c3)c(CNC(C)(C)C(=O)NCCNC(=O)CCCC[C@@H]3SC[C@@H]4NC(=O)N[C@@H]43)cc2Cl)cccc1-c1ccccc1	79.2%
